Hello, the source for this data is ChEMBL document CHEMBL2203201, in case you need it.

EXPERIMENT: Selectivity index, ratio of IC50 for human NFF cells to IC50 for chloroquine-sensitive ring stage plasmodium falciparum 3D7
Use 9 as the dividing line for Ratio IC50, with the line itself on the Fulfilled side and lower values as Not fulfilled.

> print(dat)
                                        mol  assigned.label
1  C[C@]1(O)Cc2c(O)c3c(c(O)c2[C@@H](O)C1)C(=O)C=C(NCCc1ccccc1)C3=O   Not fulfilled
2  COCCNC1=CC(=O)c2c(O)c3c(c(O)c2C1=O)C[C@](C)(O)C[C@@H]3O   Not fulfilled
3  COC1=CC(=O)c2c(O)c3c(c(O)c2C1=O)C[C@@](C)(O)C[C@@H]3O       Fulfilled
4  C[C@]1(O)Cc2c(O)c3c(c(O)c2[C@@H](O)C1)C(=O)C=C(NCCc1ccc(Cl)cc1)C3=O       Fulfilled
5  C[C@]1(O)Cc2c(O)c3c(c(O)c2[C@@H](O)C1)C(=O)C=C(NCCc1ccc(O)cc1)C3=O       Fulfilled
6  C[C@]1(O)Cc2c(O)c3c(c(O)c2[C@@H](O)C1)C(=O)C=C(NCCCN)C3=O   Not fulfilled
7  CNC1=CC(=O)c2c(O)c3c(c(O)c2C1=O)C[C@](C)(O)C[C@@H]3O   Not fulfilled
8  C[C@]1(O)Cc2c(O)c3c(c(O)c2[C@@H](O)C1)C(=O)C=C(NCCN1CCCC1)C3=O   Not fulfilled
9  CCCNC1=CC(=O)c2c(O)c3c(c(O)c2C1=O)C[C@](C)(O)C[C@@H]3O       Fulfilled

###

EXPERIMENT: Selectivity index, ratio of IC50 for human NFF cells to IC50 for chloroquine-sensitive ring stage plasmodium falciparum 3D7
VALUE_KIND: Ratio IC50

> print(dat)
                                        mol  result
1  C[C@]1(O)Cc2c(O)c3c(c(O)c2[C@@H](O)C1)C(=O)C=C(NCc1ccccc1)C3=O     1.4
2  COC1=CC(=O)c2c(O)c3c(c(O)c2C1=O)C[C@](C)(O)C[C@@H]3O     8.2
3  CC(C)(C)OC(=O)NCCCNC1=CC(=O)c2c(O)c3c(c(O)c2C1=O)C[C@](C)(O)C[C@@H]3O     5.4
4  C[C@]1(O)Cc2c(O)c3c(c(O)c2[C@@H](O)C1)C(=O)C=C(NCCN1CCOCC1)C3=O     3.9
5  COC1=CC(=O)c2c(O)c3c(c(O)c2C1=O)C[C@](C)(O)CC3    12.1
